compounds and their reported pKi D4
molecular target: D4 receptor (Homo sapiens); assay: pKi for dopamine receptor D4 (Table 1); type: binding
Sequence (P21917 whole entry): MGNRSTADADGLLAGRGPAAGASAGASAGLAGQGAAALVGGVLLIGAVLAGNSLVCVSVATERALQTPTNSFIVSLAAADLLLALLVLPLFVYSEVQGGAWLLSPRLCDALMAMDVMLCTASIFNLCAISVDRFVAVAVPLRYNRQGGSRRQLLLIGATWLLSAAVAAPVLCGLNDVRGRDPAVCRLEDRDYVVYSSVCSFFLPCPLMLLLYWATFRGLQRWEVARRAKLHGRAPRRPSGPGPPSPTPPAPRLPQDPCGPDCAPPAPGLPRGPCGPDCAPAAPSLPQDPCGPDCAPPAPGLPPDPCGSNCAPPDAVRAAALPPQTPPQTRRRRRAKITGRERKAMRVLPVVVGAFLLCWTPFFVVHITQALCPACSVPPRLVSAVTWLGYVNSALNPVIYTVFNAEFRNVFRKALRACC

Reference set, count: 3
O=C(CC1CCN(CCOc2cccc3c2OCCO3)C1)c1ccc(F)cc1 (centres unmarked) : 7-8
OC1(c2ccc(Cl)cc2)CCN(Cc2c[nH]c3ccccc23)CC1 : 6-7
N#Cc1ccc2c(c1)[C@H]1CN(CCCCNC(=O)c3ccc(-c4ccccc4)cc3)C[C@@H]1CO2 : <6

Endpoint output: pKi D4 of O=C1N(CCN2CCC(c3noc4cc(F)ccc34)CC2)CCN1c1ccccc1 . Value?
8-9

Endpoint output: pKi D4 of CCN1CCC[C@H]1CNC(=O)c1c(O)c(Cl)cc(Cl)c1OC (racemic) [Raciopride] . Value?
<6

====

target: 5-HT2A receptor (Homo sapiens, UniProt P28223); assay: pKi for 5HT2A receptor (Table 1); type: binding
Sequence (P28223 whole entry): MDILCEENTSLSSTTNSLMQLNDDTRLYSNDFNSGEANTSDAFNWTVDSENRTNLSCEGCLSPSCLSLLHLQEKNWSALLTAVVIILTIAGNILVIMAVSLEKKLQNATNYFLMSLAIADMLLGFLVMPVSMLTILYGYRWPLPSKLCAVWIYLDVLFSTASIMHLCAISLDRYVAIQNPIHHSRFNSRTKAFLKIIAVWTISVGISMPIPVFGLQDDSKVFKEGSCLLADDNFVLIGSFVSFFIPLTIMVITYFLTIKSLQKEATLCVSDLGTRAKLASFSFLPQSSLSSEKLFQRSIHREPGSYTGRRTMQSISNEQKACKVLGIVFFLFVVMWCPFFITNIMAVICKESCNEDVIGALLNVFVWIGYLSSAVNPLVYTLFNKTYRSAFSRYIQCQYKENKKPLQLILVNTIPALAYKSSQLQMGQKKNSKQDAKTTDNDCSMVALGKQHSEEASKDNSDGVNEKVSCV
experimental endpoint: pKi 5HT2A

Reference set, count: 3
CCN1CCC[C@H]1CNC(=O)c1c(O)c(Cl)cc(Cl)c1OC (racemic) [Raciopride] : 6-7
N#Cc1ccc2c(c1)[C@H]1CN(CCCCNC(=O)c3ccc(-c4ccccc4)cc3)C[C@@H]1CO2 : 6-7
O=C1N(CCN2CCC(c3noc4cc(F)ccc34)CC2)CCN1c1ccccc1 : 8-9

Continue with the molecule presented below.
Endpoint output: pKi 5HT2A of O=C(CC1CCN(CCOc2cccc3c2OCCO3)C1)c1ccc(F)cc1 (stereo not shown) . Value?
>9

====

compounds and their reported pKi Alpha1A
biological target: adrenergic receptor Alpha 1A (Homo sapiens); assay: pKi for adrenergic receptor Alpha1A (Table 1); type: binding
Sequence (P35348 whole entry): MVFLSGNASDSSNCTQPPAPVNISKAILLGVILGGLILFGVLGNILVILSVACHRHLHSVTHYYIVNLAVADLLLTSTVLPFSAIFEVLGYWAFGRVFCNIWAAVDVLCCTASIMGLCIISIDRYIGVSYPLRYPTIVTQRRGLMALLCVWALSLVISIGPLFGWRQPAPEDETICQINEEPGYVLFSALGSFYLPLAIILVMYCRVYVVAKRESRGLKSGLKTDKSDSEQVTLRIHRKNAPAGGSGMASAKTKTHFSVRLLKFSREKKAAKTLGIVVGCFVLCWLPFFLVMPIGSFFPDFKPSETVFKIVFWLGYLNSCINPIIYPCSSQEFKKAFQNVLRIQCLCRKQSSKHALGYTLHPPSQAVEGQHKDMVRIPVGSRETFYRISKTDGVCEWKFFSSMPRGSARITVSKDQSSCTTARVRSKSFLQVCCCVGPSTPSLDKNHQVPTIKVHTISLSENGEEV

Reference set, count: 3
CCN1CCC[C@H]1CNC(=O)c1c(O)c(Cl)cc(Cl)c1OC (racemic) [Raciopride] : <6
O=C(CC1CCN(CCOc2cccc3c2OCCO3)C1)c1ccc(F)cc1 (stereo not shown) [S16924] : 8-9
N#Cc1ccc2c(c1)[C@H]1CN(CCCCNC(=O)c3ccc(-c4ccccc4)cc3)C[C@@H]1CO2 [S33084] : 6-7

Continue with the compound presented below.
Endpoint output: pKi Alpha1A of O=C1N(CCN2CCC(c3noc4cc(F)ccc34)CC2)CCN1c1ccccc1 [S18327] . Value?
>9

====

molecular target: UniProtKB P35462; assay: pKi for dopamine receptor D3 (Table 1); assay type: binding
Sequence (P35462 whole entry): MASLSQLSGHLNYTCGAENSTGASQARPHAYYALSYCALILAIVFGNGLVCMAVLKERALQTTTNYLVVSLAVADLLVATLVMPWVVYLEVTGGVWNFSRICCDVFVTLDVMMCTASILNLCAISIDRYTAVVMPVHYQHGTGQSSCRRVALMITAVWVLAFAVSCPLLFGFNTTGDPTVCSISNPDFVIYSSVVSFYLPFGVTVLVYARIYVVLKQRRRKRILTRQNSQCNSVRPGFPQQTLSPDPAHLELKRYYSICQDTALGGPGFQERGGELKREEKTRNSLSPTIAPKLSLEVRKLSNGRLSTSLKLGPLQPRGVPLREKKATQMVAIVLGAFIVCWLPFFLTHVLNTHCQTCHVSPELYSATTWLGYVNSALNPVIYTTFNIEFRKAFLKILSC
compounds and their reported pKi D3

Reference set, count: 4
O=C1N(CCN2CCC(c3noc4cc(F)ccc34)CC2)CCN1c1ccccc1 : 6-7
O=C(CC1CCN(CCOc2cccc3c2OCCO3)C1)c1ccc(F)cc1 (centres unmarked) : 7-8
N#Cc1ccc2c(c1)[C@H]1CN(CCCCNC(=O)c3ccc(-c4ccccc4)cc3)C[C@@H]1CO2 : >9
CCN1CCC[C@H]1CNC(=O)c1c(O)c(Cl)cc(Cl)c1OC (racemic) [Raciopride] : 8-9

Continue with the compound presented below.
Endpoint output: pKi D3 of OC1(c2ccc(Cl)cc2)CCN(Cc2c[nH]c3ccccc23)CC1 . Value?
7-8

====

compounds and their reported pKi Alpha2A
Target: adrenergic receptor Alpha 2A (Homo sapiens)
Sequence (P08913 1-465): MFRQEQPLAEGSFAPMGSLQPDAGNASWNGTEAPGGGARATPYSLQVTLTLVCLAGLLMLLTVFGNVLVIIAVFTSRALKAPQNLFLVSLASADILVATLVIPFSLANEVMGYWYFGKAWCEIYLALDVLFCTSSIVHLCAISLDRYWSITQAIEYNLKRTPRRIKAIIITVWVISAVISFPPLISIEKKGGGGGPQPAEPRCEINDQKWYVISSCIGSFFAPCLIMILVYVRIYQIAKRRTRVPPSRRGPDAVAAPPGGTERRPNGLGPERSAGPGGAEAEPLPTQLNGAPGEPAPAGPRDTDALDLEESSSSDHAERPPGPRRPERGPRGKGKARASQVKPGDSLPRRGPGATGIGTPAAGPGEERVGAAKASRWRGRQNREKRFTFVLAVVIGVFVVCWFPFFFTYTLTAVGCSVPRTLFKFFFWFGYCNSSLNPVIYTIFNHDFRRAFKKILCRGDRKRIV
Test: pKi for adrenergic receptor Alpha2A (Table 1)
Format: binding

Reference set, count: 2
O=C1N(CCN2CCC(c3noc4cc(F)ccc34)CC2)CCN1c1ccccc1 : 6-7
CCN1CCC[C@H]1CNC(=O)c1c(O)c(Cl)cc(Cl)c1OC (racemic) [Raciopride] : <6

Endpoint output: pKi Alpha2A of O=C(CC1CCN(CCOc2cccc3c2OCCO3)C1)c1ccc(F)cc1 (centres unmarked) . Value?
6-7

Endpoint output: pKi Alpha2A of N#Cc1ccc2c(c1)[C@H]1CN(CCCCNC(=O)c3ccc(-c4ccccc4)cc3)C[C@@H]1CO2 . Value?
<6

Endpoint output: pKi Alpha2A of OC1(c2ccc(Cl)cc2)CCN(Cc2c[nH]c3ccccc23)CC1 . Value?
<6

====

D4 receptor (Homo sapiens) data, read-out Ki

Endpoint output: Ki of CN(C)CCOC1=Cc2ccccc2Sc2ccc(Cl)cc21 [Zotepine] . Value?
10 to 100 nM

Endpoint output: Ki of CCNC(=O)N1CCN(CCCC(c2ccc(F)cc2)c2ccc(F)cc2)CC1 [Amperozide] . Value?
> 1000 nM

Endpoint output: Ki of NC(=O)C1(N2CCCCC2)CCN(CCCC(=O)c2ccc(F)cc2)CC1 . Value?
≤ 10 nM

====

target: 5-HT1A receptor (Homo sapiens, UniProt P08908); test: pKi for 5HT1A receptor (Table 1); assay type: binding
Sequence (P08908 whole entry): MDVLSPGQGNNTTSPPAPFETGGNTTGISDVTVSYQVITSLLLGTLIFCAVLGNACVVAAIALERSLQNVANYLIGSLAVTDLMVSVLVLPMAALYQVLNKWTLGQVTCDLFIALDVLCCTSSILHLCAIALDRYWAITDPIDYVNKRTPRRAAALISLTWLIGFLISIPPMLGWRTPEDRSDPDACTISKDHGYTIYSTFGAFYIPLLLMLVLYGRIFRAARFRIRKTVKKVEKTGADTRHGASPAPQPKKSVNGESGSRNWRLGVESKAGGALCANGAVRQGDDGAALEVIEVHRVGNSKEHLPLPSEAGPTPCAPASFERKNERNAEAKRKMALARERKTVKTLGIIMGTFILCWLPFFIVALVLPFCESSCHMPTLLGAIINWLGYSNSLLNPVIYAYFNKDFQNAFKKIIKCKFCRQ
compounds and their reported pKi 5HT1A

O=C1N(CCN2CCC(c3noc4cc(F)ccc34)CC2)CCN1c1ccccc1 : 7-8
CCN1CCC[C@H]1CNC(=O)c1c(O)c(Cl)cc(Cl)c1OC (racemic) [Raciopride] : <6
O=C(CC1CCN(CCOc2cccc3c2OCCO3)C1)c1ccc(F)cc1 (stereo not shown) : 8-9

Continue with the compound presented below.
Query pKi 5HT1A on 5-HT1A receptor (Homo sapiens, UniProt P08908) for N#Cc1ccc2c(c1)[C@H]1CN(CCCCNC(=O)c3ccc(-c4ccccc4)cc3)C[C@@H]1CO2
<6

====

molecular target: 5-HT2A receptor (Homo sapiens, UniProt P28223)
pKi: −log10 of the molar value.
experimental endpoint: pKi

Query pKi on 5-HT2A receptor (Homo sapiens, UniProt P28223) for Fc1cccc2c1O[C@H]1CNC[C@@H]1O2 [Fluparoxan]
< 6.00

====

compounds and their reported pKi 5HT2C
biological target: UniProt P28335; test: pKi for 5HT2C receptor (Table 1); assay type: binding
Sequence (P28335 33-458): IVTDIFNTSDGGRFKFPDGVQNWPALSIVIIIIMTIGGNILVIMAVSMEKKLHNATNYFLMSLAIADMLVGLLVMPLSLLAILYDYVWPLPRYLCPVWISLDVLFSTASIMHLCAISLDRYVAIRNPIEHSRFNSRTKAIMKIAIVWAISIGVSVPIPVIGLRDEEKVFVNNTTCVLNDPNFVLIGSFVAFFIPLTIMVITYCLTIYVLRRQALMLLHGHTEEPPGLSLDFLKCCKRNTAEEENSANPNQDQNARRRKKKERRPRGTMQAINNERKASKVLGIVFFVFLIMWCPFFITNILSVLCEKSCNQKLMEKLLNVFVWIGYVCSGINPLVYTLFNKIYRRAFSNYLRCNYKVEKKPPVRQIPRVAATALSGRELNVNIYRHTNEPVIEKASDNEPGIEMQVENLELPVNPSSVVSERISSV

Reference set, count: 3
CCN1CCC[C@H]1CNC(=O)c1c(O)c(Cl)cc(Cl)c1OC (racemic) [Raciopride] : <6
O=C(CC1CCN(CCOc2cccc3c2OCCO3)C1)c1ccc(F)cc1 (stereo not shown) : 7-8
N#Cc1ccc2c(c1)[C@H]1CN(CCCCNC(=O)c3ccc(-c4ccccc4)cc3)C[C@@H]1CO2 : 7-8

Continue with the compound presented below.
Endpoint output: pKi 5HT2C of O=C1N(CCN2CCC(c3noc4cc(F)ccc34)CC2)CCN1c1ccccc1 . Value?
6-7
